Data origin, for the record: ChEMBL document CHEMBL5674860

In this section we review reported Cell Viability values for a set of molecules.
- Tested on: Colon cancer organoid
- ASSAY METHOD TEXT: Optimized Dual-Glo assay to identify co-culture induced drug vulnerabilities using donated chemical probes and chemogenomics kinase set in O06 CRC organoid and F06 CAF mono and co-culture. […] Cell viability is reported both mono and co-culture models.
- Type: functional, Homo sapiens
- Set-up: dose or concentration left out as unconfirmed
- CONDITION: Culture type Co-Culture; Transduced with Renilla-dsRed lentivirus

# MOLECULE, Cell Viability (%)
rows = [
    ("Cn1cc(-c2ccc3occ(-c4ccccc4-c4ccccc4)c3n2)cn1", 150.558),
    ("CC1=C(C#N)C(c2ccc3c(c2)c(NC(=O)c2ccccc2C)nn3C)C(C#N)=C(C)N1 [BAY-974]", 94.9804),
    ("Cc1c(Nc2ccc(S(=O)(=O)N3CCN(C)CC3)cc2F)nc2ccc(Nc3cnn(C4CC4)c3)cn2c1=O", 120.859),
    ("C[C@H](c1ccc(F)cc1)N(Cc1ccc(Cl)c(C(=O)O)c1)C(=O)c1cnc2ccccc2c1 [PF-05257137]", 128.047),
    ("COc1ccccc1C(=O)Nc1cc2c(cc1N1CCNCC1C)n(C)c(=O)n2C (stereo not drawn)", 138.916),
    ("COCCN1CCC(c2cc(CN(C)C(=O)c3cccc(Oc4ccccc4)c3)ccn2)CC1", 131.922),
    ("COc1cccc2c1c(O)c(C(=O)N(C)c1ccc(C(F)(F)F)cc1)c(=O)n2C [TASQUINIMOD]", 130.265),
    ("CC(C)(C)c1cc(NC(=O)Nc2ccc(-c3cn4c(n3)sc3cc(OCCN5CCOCC5)ccc34)cc2)no1 [QUIZARTINIB]", 134.448),
]

----------
- Test system: Colon cancer organoid
- ASSAY METHOD TEXT: Optimized Dual-Glo assay to identify co-culture induced drug vulnerabilities using donated chemical probes and chemogenomics kinase set in O14 CRC organoid and F14 CAF mono and co-culture. […] Cell viability is reported both mono and co-culture models.
- Assay type: functional, Homo sapiens
- Parameters: dose or concentration left out as unconfirmed
- CONDITION: Culture type Mono-Culture; Transduced with Renilla-dsRed lentivirus

# COMPOUND, Cell Viability [%]
records = [
    ("Cc1cc(CN)cc(C)c1-c1ncn(C)c1-c1cncn1C", 86.3829),
    ("CC1(C)C(N)=Nc2cc(OCCCCN3Cc4ccc(OCc5cn(CC(=O)N6CCC(CCN7CCCC7)CC6)nn5)cc4C3)c(OCC3CC3)cc21", 106.753),
    ("Cn1cc(CCn2cnc(-c3cnn(C)c3)c2-c2ccc(C#N)cc2)cn1", 97.1773),
    ("Cc1cnc(-c2cc(Cl)ccc2F)cc1-n1c(=O)n(CC(N)=O)c2ccccc21", 91.7467),
    ("Cc1nc(-c2cn3c(n2)-c2ccc(-c4cnn(C(C)(C)C(N)=O)c4)cc2OCC3)n(C(C)C)n1", 65.8836),
    ("O=C(NC[C@H](O)CN1CCc2ccccc2C1)c1ccnc(NC2CCC2)c1", 88.6314),
    ("NS(=O)(=O)c1cc(NC(=O)C2(c3ccccc3Cl)CC2)ccc1Oc1cccc(Cl)c1", 122.925),
    ("COc1cc(-c2cn(C)c(=O)c3cnccc23)c(OC)cc1CN(C)C", 114.194),
    ("C[C@H](NC(=O)Nc1cc2[nH]ncc2c(CO)n1)c1ccccn1", 92.432),
    ("CN(C)C(=O)c1ccc(-c2cc(C(=O)N[C@@H]3CCc4ccccc43)no2)cc1O", 134.73),
    ("COc1cc(Nc2nc(C)cc(-c3cnn4nc(OC)ccc34)n2)cc(C(F)(F)F)c1", 99.2277),
    ("C[C@H]1CCCN1Cc1nc2cc(NC(=O)c3ccc4cnccc4c3)ccc2[nH]1", 105.964),
    ("CCC(=O)N[C@@H]1CC[C@H](C(=O)N(C)c2ccc(-c3nc4ccccc4o3)cc2)C1", 100.76),
    ("CN(C)c1ncnc(-c2ccc3nc(Nc4cc(CN5CCN(C(=O)CC(F)(F)F)CC5)ccn4)[nH]c3c2)c1Cl", 113.849),
    ("CN1C(=O)c2sccc2N(C)c2nc(Nc3ccc(S(N)(=O)=O)cc3)ncc21", 55.4366),
    ("CCOc1cc2ncc(C#N)c(Nc3ccc(OCc4cccc(F)c4)c(Cl)c3)c2cc1NC(=O)/C=C/CN(C)C", 33.5455),
    ("CCOc1ccn(-c2ccc(F)cc2)c(=O)c1C(=O)Nc1ccc(Oc2ccnc(N)c2Cl)c(F)c1", 83.2963),
    ("COc1cc(C)c(Sc2cnc(NC(=O)c3ccc(CNC(C)C(C)(C)C)cc3)s2)cc1C(=O)N1CCN(C(C)=O)CC1 (stereo not drawn)", 80.9779),
]

----------
In this section we review reported Cell Viability values for a set of compounds.
- System: Colon cancer organoid
- ASSAY METHOD TEXT: Optimized Dual-Glo assay to identify co-culture induced drug vulnerabilities using donated chemical probes and chemogenomics kinase set in O14 CRC organoid and F14 CAF mono and co-culture. […] Cell viability is reported both mono and co-culture models.
- Type: functional, Homo sapiens
- Parameters: dose or concentration left out as unconfirmed
- CONDITION: Culture type Mono-Culture; Transduced with Renilla-dsRed lentivirus

# COMPOUND, Cell Viability (%)
rows = [
    ("O=C(NCCN1CCOCC1)c1ccc2c(c1)C(=O)c1ccc(Nc3ccc(F)c(NC(=O)c4ccccc4)c3)cc1CC2", 81.8914),
    ("COc1cc(OC)cc(-c2noc(N3CCN(C)C4(CCN(c5ccccc5)CC4)C3)n2)c1", 91.5093),
    ("Cn1cc(Cl)c2c(Oc3c(F)cc(Nc4cc(Cl)nc(N)n4)cc3F)ccnc21", 92.3665),
    ("CNC(=O)Nc1ccc(-c2nc(N3CC4CCC(C3)O4)c3cnn(C4CCC5(CC4)OCCO5)c3n2)cc1", 40.9027),
    ("Cc1ccc(C(=O)Nc2cccc(C(F)(F)F)c2)cc1Nc1nc(-c2cccnc2)nc2c1cnn2C", 71.8424),
    ("C[C@H](c1ccc(F)cc1)N(Cc1cccc(C(=O)O)c1)C(=O)c1cnc2ccccc2c1", 99.7573),
    ("Cc1ccc2[nH]c(CNCCCc3ccncc3)cc(=O)c2c1 [UCSF924NC]", 99.591),
    ("Cc1noc([C@H]2C[C@@H](c3ccc(C(F)(F)F)cc3)CN(C(=O)N3CCS(=O)(=O)C3)C2)n1", 97.5385),
]

----------
- System: Colon cancer organoid
- ASSAY METHOD TEXT: Optimized Dual-Glo assay to identify co-culture induced drug vulnerabilities using donated chemical probes and chemogenomics kinase set in O14 CRC organoid and F14 CAF mono and co-culture. […] Cell viability is reported both mono and co-culture models.
- Format: functional, Homo sapiens
- Design: dose or concentration left out as unconfirmed
- CONDITION: Culture type Mono-Culture; Transduced with Renilla-dsRed lentivirus
READOUT TYPE: Cell Viability (%)

# MOLECULE, ASSAY TARGET, READOUT TYPE, UNIT, REPORTED
records = [
    ("Cc1cccc(-c2cnc3occ(-c4ccc(C(=O)O)c(C5CCCC5)c4)c3c2)c1", "Colon cancer organoid", "Cell Viability", "%", 90.9911),
    ("CCC(=N\\O)/C(C)=C/c1ccc(F)c(C)c1", "Colon cancer organoid", "Cell Viability", "%", 105.569),
    ("Cc1c(C(=O)O)cc(-c2ccc(C3CCNCC3)cc2)c2ccc(-c3ccc(C(F)(F)F)cc3)cc12.Cl", "Colon cancer organoid", "Cell Viability", "%", 99.4723),
    ("Cc1sc2c(c1C)C(c1ccc(Cl)cc1)=N[C@@H](CC(=O)NCCCCCCCCNC(=O)COc1cccc3c1C(=O)N(C1CCC(=O)NC1=O)C3=O)c1nnc(C)n1-2 (some centres undefined)", "Colon cancer organoid", "Cell Viability", "%", 21.4216),
]

----------
- Tested on: Colon cancer organoid
- ASSAY METHOD TEXT: Optimized Dual-Glo assay to identify co-culture induced drug vulnerabilities using donated chemical probes and chemogenomics kinase set in O06 CRC organoid and F06 CAF mono and co-culture. […] Cell viability is reported both mono and co-culture models.
- Format: functional, Homo sapiens
- Parameters: dose or concentration left out as unconfirmed
- CONDITION: Culture type Mono-Culture; Transduced with Renilla-dsRed lentivirus

# COMPOUND, UNIT, Cell Viability
data = [
    ("NS(=O)(=O)c1cc(NC(=O)C2(c3ccccc3Cl)CC2)ccc1Oc1cccc(Cl)c1 [BAY-207]", "%", 150.163),
    ("Cc1cc(-n2nc(Cc3cc(F)cc(C(F)(F)F)c3)nc2C)ccc1C(N)=O [TP-024]", "%", 106.563),
    ("CN1C(=O)c2sccc2N(C)c2nc(Nc3ccc(S(N)(=O)=O)cc3)ncc21", "%", 40.4928),
    ("Cc1cnc(-c2cc(Cl)ccc2F)cc1-n1c(=O)n(CC(N)=O)c2cnccc21 [TP-008]", "%", 82.299),
    ("COc1cc2c(cc1NS(=O)(=O)c1ccc(Br)cc1C)n(C)c(=O)n2C", "%", 120.075),
]
